These measurements were taken from patent US20100065444A1.

test: Stability of multivitamin soft capsules in PVC/PVDC-aluminium blister, 40° C./75% RH; assay type: physicochemical; conditions: Multivitamin soft capsule batch 9018401, Start
# key: entry, value: amount of active compound present
Respond with the bare value in mg/capsule.

{"Molecule": "Cc1ncc(C[n+]2csc(CCO)c2C)c(N)n1.Cl.[Cl-] [Thiamine*HCL]", "Unit of measure": "mg/capsule", "Value measured": 19.7}
{"Molecule": "Nc1nc2ncc(CNc3ccc(C(=O)N[C@@H](CCC(=O)O)C(=O)O)cc3)nc2c(=O)[nH]1", "Unit of measure": "mg/capsule", "Value measured": 0.62}

q: Respond only with amount of active compound present recorded for "O=C1O[C@H]([C@@H](O)CO)C(O)=C1O"
a: 209

q: Please give measured amount of active compound present of the following entry: "CC(C)(CO)[C@@H](O)C(=O)NCCCO"
a: 13.5
